Hello, the source for this data is patent US9290507B2, in case you need it.

Molecular target: B-Raf (V600E)-kinase (Homo sapiens (Human), UniProt P15056, V600E)
Sequence (P15056 whole entry V600E): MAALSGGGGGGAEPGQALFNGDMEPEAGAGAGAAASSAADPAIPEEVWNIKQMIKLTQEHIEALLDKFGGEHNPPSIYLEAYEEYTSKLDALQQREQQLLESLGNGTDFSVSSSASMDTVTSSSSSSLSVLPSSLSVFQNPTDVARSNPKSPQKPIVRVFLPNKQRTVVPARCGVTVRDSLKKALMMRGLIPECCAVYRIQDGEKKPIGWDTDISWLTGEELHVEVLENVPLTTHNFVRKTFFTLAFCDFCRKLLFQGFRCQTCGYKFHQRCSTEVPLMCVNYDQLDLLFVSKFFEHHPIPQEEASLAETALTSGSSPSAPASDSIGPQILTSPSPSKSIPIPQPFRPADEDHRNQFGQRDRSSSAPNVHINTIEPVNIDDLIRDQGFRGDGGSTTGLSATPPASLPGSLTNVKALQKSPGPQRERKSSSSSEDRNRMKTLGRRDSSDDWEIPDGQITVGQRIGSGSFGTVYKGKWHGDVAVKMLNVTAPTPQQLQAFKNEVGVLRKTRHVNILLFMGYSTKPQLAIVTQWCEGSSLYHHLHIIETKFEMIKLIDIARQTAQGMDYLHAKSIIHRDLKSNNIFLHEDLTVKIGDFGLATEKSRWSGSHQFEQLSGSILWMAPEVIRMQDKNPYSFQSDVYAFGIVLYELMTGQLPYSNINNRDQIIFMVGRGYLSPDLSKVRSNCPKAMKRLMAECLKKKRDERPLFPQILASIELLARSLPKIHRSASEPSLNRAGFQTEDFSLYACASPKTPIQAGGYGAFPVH
Test: Kinase test B-Raf (V600E)
Conditions: 1 h preincubation, 250 μM ATP
attribute.measured: IC50 (nM)

Completed entries (count: 3):
[
  {
    "compound": "Cc1ccc(C(=O)Nc2cc(C(F)(F)F)ccn2)cc1-n1cc(-c2cncc(N3CCC(N(C)C)CC3)c2)nn1",
    "output.unit": "nM",
    "reported.value": 8
  },
  {
    "compound": "Cc1ccc(C(=O)Nc2cc(C(C)(C)C)on2)cc1-n1cc(-c2cncc(N3CCC(CN(C)C)CC3)c2)nn1",
    "output.unit": "nM",
    "reported.value": 12
  },
  {
    "compound": "Cc1ccc(C(=O)Nc2cc(C(F)(F)F)ccn2)cc1-n1cc(-c2cncc(N3CCC(N(C)C)C3)c2)nn1 (stereo not drawn)",
    "output.unit": "nM",
    "reported.value": 7
  }
]

A. Cc1ccc(C(=O)Nc2cc(C(F)(F)F)ccn2)cc1-n1cc(-c2cncc(NCCN(C)C)c2)nn1
B. Cc1ccc(C(=O)Nc2cc(C(F)(F)F)ccn2)cc1-n1cc(-c2cncc(NC3CCN(C)CC3)c2)nn1
## Task Sort A and B by IC50 descending and give the first. Pick one; state its label.
## Result B
